# System: EW-22;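 also: growth inhibition of the EW-22 cell line, measured with a cell viability readout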
# experiment-summary: cells
# Type: functional, cell-based, Homo sapiens
# experimental-parameters: Homo sapiens, EW-22
# Description: SANGER: Inhibition of human EW-22 cell growth in a cell viability assay.
metric-name: IC50 (µM)
Give just the numeric value; µM need not be written.

So for `COc1cc2c(Nc3ccc(NC(=O)c4ccccc4)cc3)ncnc2cc1OCCCN1CCOCC1` , the logged IC50 turned out to be 3.18

====

Some compounds, each annotated with its measured IC50.
# Test system: NCI-H1755;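 also: cell viability readout used to measure growth inhibition of NCI-H1755 cells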
# experiment-summary: cells
# Type: functional, cell-based, Homo sapiens
# experimental-parameters: Homo sapiens, NCI-H1755
# Description: SANGER: Inhibition of human NCI-H1755 cell growth in a cell viability assay.

As a guide, the following entries are already answered.
compound	recorded-measurement
Cc1cc([N+](=O)[O-])ccc1NS(=O)(=O)c1cc(Cl)ccc1Cl	15.8 µM
Cn1cnc2c(F)c(Nc3ccc(Br)cc3Cl)c(C(=O)NOCCO)cc21	> 4 µM
CC(C)CCN1c2nc(Nc3cc(F)c(O)c(F)c3)ncc2N(C)C(=O)C1C (stereo not drawn)	> 5 µM
CC1(C)CNc2cc(NC(=O)c3cccnc3NCc3ccncc3)ccc21	> 2 µM
CN(C)C(=N)NC(=N)N	> 20000 µM

So for `N#Cc1c(O)c2c(-c3ccc(-c4ccccc4O)cc3)csc2[nH]c1=O` , the logged IC50 turned out to be > 1.02 µM

So for `Nc1ccn([C@@H]2O[C@H](CO)[C@@H](O)C2(F)F)c(=O)n1` , the logged IC50 turned out to be 0.718 µM

So for `O=C(O)c1ccc(-c2c[nH]c3ncc(-c4ccccc4)cc23)cc1C1CCCC1` , the logged IC50 turned out to be > 16 µM

====

# Tested on: IST-SL1;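 also: growth inhibition of human IST-SL1 cells, read out with a cell viability assay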
# experiment-summary: cells
# Format: functional, cell-based, Homo sapiens
# experimental-parameters: Homo sapiens, IST-SL1
# Description: SANGER: Inhibition of human IST-SL1 cell growth in a cell viability assay.
metric-name: IC50

As a guide, the following entries are already answered.
compound	subject-of-test	IC50
COc1cc(N2CCN(C)CC2)ccc1Nc1ncc2c(n1)N(C)c1ccccc1C(=O)N2C	IST-SL1	> 8000 nM
N[C@@H](CSC(c1ccccc1)(c1ccccc1)c1ccccc1)C(=O)O [S-TRITYL-L-CYSTEINE]	IST-SL1	4340 nM
CC(=O)O[C@H]1C(=O)[C@@]2(C)[C@H]([C@H](OC(=O)c3ccccc3)[C@]3(O)C[C@H](OC(=O)[C@H](O)[C@@H](NC(=O)c4ccccc4)c4ccccc4)C(C)=C1C3(C)C)[C@]1(OC(C)=O)CO[C@@H]1C[C@@H]2O [PACLITAXEL]	IST-SL1	30.4 nM
O=C(O)c1ccc(-c2c[nH]c3ncc(-c4ccccc4)cc23)cc1C1CCCC1 [GSK-650394]	IST-SL1	> 16000 nM
C#Cc1cccc(Nc2ncnc3cc(OCCOC)c(OCCOC)cc23)c1 [ERLOTINIB]	IST-SL1	> 2000 nM

So for Nc1ccn([C@@H]2O[C@H](CO)[C@@H](O)C2(F)F)c(=O)n1 [GEMCITABINE] , the logged IC50 turned out to be 197 nM

So for `Cc1ccc(-c2c(C(=O)CCl)n(CCCO)c3ncnc(N)c23)cc1` , the logged IC50 turned out to be > 4000 nM

So for `CC(C)c1ccccc1Cc1cc(C(=O)Nc2ccc(S(=O)(=O)c3ccccc3C(C)(C)C)cc2)c(O)c(O)c1O` , the logged IC50 turned out to be 438 nM

So for Cn1cnc2c(F)c(Nc3ccc(Br)cc3Cl)c(C(=O)NOCCO)cc21 [SELUMETINIB] , the logged IC50 turned out to be > 4000 nM

So for `N#Cc1c(O)c2c(-c3ccc(-c4ccccc4O)cc3)csc2[nH]c1=O` , the logged IC50 turned out to be > 1020 nM
